IC50 overview
- study_system: METTL3/METTL14 (Homo sapiens)
- Sequence (Q86U44 whole entry, species assumed): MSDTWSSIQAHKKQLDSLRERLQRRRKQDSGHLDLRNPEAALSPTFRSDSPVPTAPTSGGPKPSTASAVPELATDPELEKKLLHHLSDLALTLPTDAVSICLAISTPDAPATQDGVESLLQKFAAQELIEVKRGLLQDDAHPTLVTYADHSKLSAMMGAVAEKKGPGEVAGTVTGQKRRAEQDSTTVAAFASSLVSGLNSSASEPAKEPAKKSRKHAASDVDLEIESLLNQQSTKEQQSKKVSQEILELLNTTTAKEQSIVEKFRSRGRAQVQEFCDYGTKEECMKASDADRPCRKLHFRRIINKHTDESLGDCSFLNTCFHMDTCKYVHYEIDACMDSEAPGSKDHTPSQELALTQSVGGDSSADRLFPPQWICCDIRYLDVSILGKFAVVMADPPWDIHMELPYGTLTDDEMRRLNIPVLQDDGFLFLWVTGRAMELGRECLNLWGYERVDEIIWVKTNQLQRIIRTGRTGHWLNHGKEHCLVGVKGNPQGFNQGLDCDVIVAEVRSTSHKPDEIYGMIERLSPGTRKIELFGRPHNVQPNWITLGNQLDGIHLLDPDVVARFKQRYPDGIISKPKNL
- Sequence (Q9HCE5 whole entry partner, species assumed): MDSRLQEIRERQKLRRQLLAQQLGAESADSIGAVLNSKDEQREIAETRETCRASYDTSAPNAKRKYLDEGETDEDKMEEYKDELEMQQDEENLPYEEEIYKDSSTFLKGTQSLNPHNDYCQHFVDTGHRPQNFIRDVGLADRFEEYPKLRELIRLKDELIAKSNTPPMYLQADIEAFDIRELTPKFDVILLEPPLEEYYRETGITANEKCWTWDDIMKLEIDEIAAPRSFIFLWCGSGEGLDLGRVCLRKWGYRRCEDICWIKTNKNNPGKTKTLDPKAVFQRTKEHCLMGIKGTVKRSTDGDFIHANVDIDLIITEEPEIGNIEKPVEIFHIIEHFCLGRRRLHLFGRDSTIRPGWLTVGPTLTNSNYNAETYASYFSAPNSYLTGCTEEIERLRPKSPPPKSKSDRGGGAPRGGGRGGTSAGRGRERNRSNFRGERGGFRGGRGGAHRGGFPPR
- method: METTL3-14 Standard Enzyme Assay (METTL3 biochemical assay)
- particulars: METTL3 biochemical assay; read-out: METTL3 IC50

// solved cases for IC50 follow
[[record]]
compound = "CN(C[C@H]1C[C@@H](n2ccc3c(N)ncnc32)[C@H](O)[C@@H]1O)c1ccc2ccc(N)nc2c1"
quantity_kind = "IC50"
result_value = "> 1000 nM"

[[record]]
compound = "Nc1ncnc2c1ccn2[C@@H]1C[C@H](CCc2ccc3cn[nH]c3c2)[C@@H](O)[C@H]1O"
quantity_kind = "IC50"
result_value = "> 1000 nM"

[[record]]
compound = "CCCc1cn([C@@H]2C[C@H](CCc3ccc4ccc(N)nc4c3)[C@@H](O)[C@H]2O)c2ncnc(N)c12"
quantity_kind = "IC50"
result_value = "100 to 1000 nM"

[[record]]
compound = "CNc1ccc2cc(CC[C@H]3C[C@@H](n4cc(C)c5c(N)ncnc54)[C@H](O)[C@@H]3O)ccc2n1"
quantity_kind = "IC50"
result_value = "100 to 1000 nM"

[[record]]
compound = "Nc1ncnc2c1ccn2[C@@H]1O[C@H](CCC2CCNCC2)[C@@H](O)[C@@H]1F"
quantity_kind = "IC50"
result_value = "100 to 1000 nM"

[[record]]
compound = "Nc1ncnc2c1ccn2[C@@H]1C[C@H](CCc2ccc3cccnc3n2)[C@@H](O)[C@H]1O"
quantity_kind = "IC50"
result_value = "> 1000 nM"


Measured IC50, CNc1ccc2ccc(OC[C@H]3O[C@H](n4cc(C(O)C5CC5)c5c(N)ncnc54)[C@H](O)[C@@H]3O)cc2n1 (some centres unmarked) : < 10 nM

Record summary for CNc1ccc2ccc(OC[C@H]3O[C@@H](n4cc(Cl)c5c(N)ncnc54)[C@H](O)[C@@H]3O)cc2n1 : reported IC50 = < 10 nM

---

- study_system: PRMT5-MEP50 (Homo sapiens)
- Sequence (O14744 whole entry): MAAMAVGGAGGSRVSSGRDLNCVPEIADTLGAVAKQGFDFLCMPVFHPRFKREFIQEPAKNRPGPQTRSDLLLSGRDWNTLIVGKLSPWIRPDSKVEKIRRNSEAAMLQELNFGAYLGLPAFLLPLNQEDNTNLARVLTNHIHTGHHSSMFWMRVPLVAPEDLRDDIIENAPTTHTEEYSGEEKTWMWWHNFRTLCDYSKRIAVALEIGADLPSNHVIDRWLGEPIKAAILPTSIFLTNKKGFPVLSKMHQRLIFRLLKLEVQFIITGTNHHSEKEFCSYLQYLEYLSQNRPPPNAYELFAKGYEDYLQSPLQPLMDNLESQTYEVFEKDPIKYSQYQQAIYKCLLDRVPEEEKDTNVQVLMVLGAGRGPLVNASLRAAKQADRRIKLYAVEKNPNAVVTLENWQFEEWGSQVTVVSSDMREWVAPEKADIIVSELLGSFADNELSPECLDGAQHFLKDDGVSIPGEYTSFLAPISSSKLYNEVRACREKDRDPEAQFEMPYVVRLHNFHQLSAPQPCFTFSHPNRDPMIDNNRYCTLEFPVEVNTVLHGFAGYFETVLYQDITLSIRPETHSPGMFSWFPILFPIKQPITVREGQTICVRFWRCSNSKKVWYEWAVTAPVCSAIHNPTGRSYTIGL
- Sequence (Q9BQA1 whole entry partner): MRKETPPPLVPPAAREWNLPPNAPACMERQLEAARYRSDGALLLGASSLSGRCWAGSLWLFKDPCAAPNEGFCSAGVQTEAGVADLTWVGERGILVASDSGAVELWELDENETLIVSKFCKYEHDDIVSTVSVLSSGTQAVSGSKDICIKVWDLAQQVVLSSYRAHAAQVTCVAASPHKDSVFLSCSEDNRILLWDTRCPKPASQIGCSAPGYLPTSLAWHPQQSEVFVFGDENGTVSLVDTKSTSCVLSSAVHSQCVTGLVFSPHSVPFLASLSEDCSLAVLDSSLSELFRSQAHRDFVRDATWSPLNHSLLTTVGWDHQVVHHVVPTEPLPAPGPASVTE
- method: PRMT5 Assay (PRMT5 biochemical assay)
quantity_kind: IC50

[[record]]
molecule = "CNc1nc2cc(OC[C@H]3O[C@@H](n4cc(-c5ccn(C)n5)c5c(N)ncnc54)[C@@H](F)[C@@H]3O)ccc2s1 [I-176]"
study_system = "PRMT5-MEP50 (Homo sapiens)"
quantity_kind = "IC50"
result_value = "> 1000 nM"


Entry Cn1ccc(-c2cn([C@@H]3O[C@H](COc4ccc5ccc(NC6CCC6)nc5c4)[C@@H](O)[C@@H]3F)c3ncnc(N)c23)n1 [I-183] , IC50 reported as > 1000 nM

IC50 recorded for this molecule, Cc1ccn(-c2cn([C@@H]3O[C@H](COc4ccc5ccc(N6CC(O)C6)nc5c4)[C@@H](O)[C@@H]3F)c3ncnc(N)c23)n1 [I-187] , is > 1000 nM

Quick note, IC50 for Cn1ccc(-c2cn([C@@H]3O[C@H](COc4ccc5ccc(NC6CNC6)nc5c4)[C@@H](O)[C@@H]3F)c3ncnc(N)c23)n1 [I-196] landed at > 1000 nM

Summary for this molecule, CN(c1ccc2ccc(OC[C@H]3O[C@@H](n4cc(-c5ccn(C)n5)c5c(N)ncnc54)[C@@H](F)[C@@H]3O)cc2n1)C1CCC1 [I-202] : IC50 is > 1000 nM

# IC50 of Cn1ccc(-c2cn([C@@H]3O[C@H](COc4ccc5ncc(N6CCC6)nc5c4)[C@@H](O)[C@@H]3F)c3ncnc(N)c23)n1 [I-189] = > 1000 nM

The value of IC50 measured for the molecule CNc1nc2cc(OC[C@H]3O[C@@H](n4cc(-n5ccc(C)n5)c5c(N)ncnc54)C[C@@H]3O)ccc2cc1F [I-207] turned out to be > 1000 nM

In plain terms, Cc1coc(-c2cn([C@@H]3O[C@H](COc4ccc5ccc(N6CCC6)nc5c4)[C@@H](O)[C@@H]3F)c3ncnc(N)c23)n1 [I-220] has a documented IC50 of > 1000 nM

So, CNc1ccc2ccc(OC[C@H]3O[C@@H](n4cc(-c5ccc(C)cn5)c5c(N)ncnc54)[C@@H](F)[C@@H]3O)cc2n1 [I-231] ? Its IC50 was 100 to 1000 nM

Sure, the documented IC50 for Cn1ccc(-c2cn([C@@H]3O[C@H](COc4ccc5ccc(N6CC(O)C6)nc5c4)[C@@H](O)[C@@H]3F)c3ncnc(N)c23)n1 [I-171] is > 1000 nM

Recorded result, Cn1ccc(-c2cn([C@@H]3C[C@H](COc4ccc5ccc(N6CCC6)nc5c4)[C@@H](O)C3)c3ncnc(N)c23)n1 [I-169] , IC50: > 1000 nM
